Answer each item with its documented inhibition at 2 µM.
Assay: HepG2 cytotoxicity screening (CellTiter-Glo)
Details: human, uninfected HepG2-A16-CD81 (EGFP) hepatocytes
Kindly provide the numeric value in % only, without the unit symbol.

# query: inhibition at 2 µM of entry "O=C(NC1CCCC1)O[C@H]1COCCN(c2nc3ccccc3s2)C1"
0.48

# query: inhibition at 2 µM of entry CCS(=O)(=O)NCC1OCCc2cn(CC3CCOCC3)nc21 (stereo not drawn)
-4.05

# query: inhibition at 2 µM of entry "N#Cc1nc(COc2ccc3c(c2)OCO3)oc1NC1CCCCC1"
1.44

# query: inhibition at 2 µM of entry "CCc1nc(CN2CCCN(c3ncnc4ccsc34)CC2)no1"
12.5

# query: inhibition at 2 µM of entry COc1ccc(-c2ccc(C3CNCCO3)nc2)cc1 (stereo not drawn)
23.7

# query: inhibition at 2 µM of entry Nc1nccc(N2CCCC(CO)(CCOc3ccccc3)C2)n1 (stereo not drawn)
-2.96

# query: inhibition at 2 µM of entry "CNC(=O)c1cccnc1NCc1ccc(Cn2ccnc2)cc1"
73.6

# query: inhibition at 2 µM of entry "CCN1C[C@@H]2[C@@H](OC)CCN(C(=O)c3cc(C)nn3CC)[C@@H]2C1"
-3.65

# query: inhibition at 2 µM of entry CC(C)(C)n1ncc2c1CCCC2NCc1ccc2c(c1)OCCO2 (stereo not drawn)
-4.43

Provenance of the data: paper PMC7155171
